From: patent US9409907B2

biological target: full length MPS1 (Homo sapiens (Human))
VALUE_TYPE: IC50 (nM)

A. COc1cc(OC2CCN(C)CC2)ccc1Nc1cc2c(-c3cnn(C)c3)cccc2cn1
B. COc1cc(-c2cnn(C)c2)ccc1Nc1ncc2ccnc(NC3CCN(C)CC3)c2n1
Of the two listed items, A and B , which carries the larger IC50 figure? Lab note: record the label of whichever item you select.
A
(A: 17 nM, B: 9 nM)

A. COc1cc(-c2cnn(CCO)c2)ccc1Nc1ncc2ccnc(NC3CCCCC3)c2n1
B. COc1cc(-c2cnn(C)c2)ccc1Nc1ncc2ccnc(N3CCN(S(C)(=O)=O)CC3)c2n1
Pick one: A or B . Which has the bigger IC50 number? Refer to your chosen entry by its label in the reply.
A
(A: 14 nM, B: 6 nM)

----------
molecular target: full length MPS1 (Homo sapiens (Human), UniProt P33981); test: Measurement of inhibition of MPS1 kinase (Caliper EZ reader mobility-shift enzyme assay); assay type: biochemical; conditions: full length MPS1 12.5 nM or 3 nM, H236 peptide 5 μM, ATP 10 μM, 60 min at room temperature
Sequence (P33981 whole entry): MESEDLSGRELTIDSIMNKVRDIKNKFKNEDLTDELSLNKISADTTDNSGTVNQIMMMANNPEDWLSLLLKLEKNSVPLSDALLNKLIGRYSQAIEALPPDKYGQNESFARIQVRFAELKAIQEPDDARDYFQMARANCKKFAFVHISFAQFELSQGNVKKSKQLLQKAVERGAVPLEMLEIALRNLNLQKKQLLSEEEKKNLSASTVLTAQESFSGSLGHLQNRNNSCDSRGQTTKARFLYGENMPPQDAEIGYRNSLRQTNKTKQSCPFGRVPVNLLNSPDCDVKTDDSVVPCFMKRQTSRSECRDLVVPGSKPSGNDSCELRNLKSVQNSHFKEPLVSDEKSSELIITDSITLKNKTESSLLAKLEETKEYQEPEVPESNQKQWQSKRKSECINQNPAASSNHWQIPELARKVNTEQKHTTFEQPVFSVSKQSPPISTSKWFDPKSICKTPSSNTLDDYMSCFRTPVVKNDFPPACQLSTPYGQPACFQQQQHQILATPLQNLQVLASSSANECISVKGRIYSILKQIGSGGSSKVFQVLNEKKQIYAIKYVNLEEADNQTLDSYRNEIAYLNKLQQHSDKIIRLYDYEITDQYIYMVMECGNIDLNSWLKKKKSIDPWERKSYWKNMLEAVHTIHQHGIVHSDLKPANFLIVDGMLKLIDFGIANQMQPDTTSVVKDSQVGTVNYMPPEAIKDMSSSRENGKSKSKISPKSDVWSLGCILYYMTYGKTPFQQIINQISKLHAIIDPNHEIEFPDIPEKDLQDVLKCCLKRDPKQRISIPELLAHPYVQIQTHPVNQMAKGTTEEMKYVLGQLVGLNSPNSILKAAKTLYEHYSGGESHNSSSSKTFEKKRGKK
VALUE_TYPE: IC50 (nM)

INSERT INTO measurements (molecule, unit_of_measure, result) VALUES
  ('COc1cc(-c2cnn(C)c2)ccc1Nc1ncc2ccnc(NC(C)C3CCOC3)c2n1 (racemic)', 'nM', 3),
  ('COc1cc(-c2cnn(C)c2)ccc1Nc1ncc2ccnc(C3=CCOCC3)c2n1', 'nM', 5),
  ('COc1cc(-c2cncn2C)ccc1Nc1cc2c(-c3cnn(C)c3)cccc2cn1', 'nM', 7);

1. Clc1cc(-c2cncnc2)ccc1Nc1ncc2ccnc(N3CCC4(COC4)C3)c2n1
2. COc1cc(-c2cnn(C)c2)ccc1Nc1ncc2ccnc(N3CCOC(CO)C3)c2n1 (centres unmarked)
Select the item whose IC50 value is smaller, choosing between 1 and 2 . Return value: the label identifying the chosen record.
2

----------
Here's a batch of compounds along with measured IC50 for full length MPS1 (Homo sapiens (Human), UniProt P33981).
VALUE_TYPE: IC50 (nM)

INSERT INTO measurements (compound, target, value_type, unit_of_measure, result) VALUES
  ('COc1cc(-c2cnn(C)c2)ccc1Nc1ncc2ccnc(N3CCN(C)CC3)c2n1', 'full length MPS1 (Homo sapiens (Human), UniProt P33981)', 'IC50', 'nM', 9),
  ('COc1cc(-c2cnn(C)c2)ccc1Nc1ncc2ccnc(N3CC(F)(F)C3)c2n1', 'full length MPS1 (Homo sapiens (Human), UniProt P33981)', 'IC50', 'nM', 25),
  ('COc1cc(-c2cnn(C)c2)ccc1Nc1ncc2ccnc(NC(C)CO)c2n1 (racemic)', 'full length MPS1 (Homo sapiens (Human), UniProt P33981)', 'IC50', 'nM', 7);

----------
pIC50: −log10 of the molar value.
// full length MPS1 (Homo sapiens (Human)) pIC50 records
VALUE_TYPE: pIC50

INSERT INTO measurements (compound, result) VALUES
  ('COc1cc(-c2cnc(C)n2C)ccc1Nc1cc2c(-c3cnn(C)c3)nccc2cn1 [Example 104]', 8.15),
  ('CCn1cc(-c2ccc(Nc3ncc4ccnc(NCC(C)(C)OC)c4n3)c(OC)c2)cn1 [Example 152]', 8.15),
  ('COc1cc(-c2nncn2C)ccc1Nc1ncc2c(C)cnc(N3CC4(CCOC4)C3)c2n1 [Example 157]', 8.22),
  ('COc1cc(-c2cnn(C)c2)ccc1Nc1ncc2ccnc(NC3CCCC3)c2n1 [Example 39]', 8.15);
